Attribution: paper PMC8321398

experiment: Mouse pharmacokinetics; type: in vivo; settings: 0.5 mg/kg iv, in a mixture of 5 compounds
READOUT_LABEL: Clobs (mL/min/kg)

CC(C)c1cc(-c2cn3c(-c4ccc5[nH]ncc5c4F)c(C(F)(F)F)nc3cn2)ccc1F [LSHTM-3661]	31.3

[a] CC(C)Oc1cc(-c2cn3c(-c4ccc5[nH]ncc5c4F)c(C(F)(F)F)nc3cn2)ccc1F [LSHTM-3690]
[b] Fc1ccc(-c2cn3c(-c4ccc5[nH]ncc5c4F)c(C(F)(F)F)nc3cn2)cc1C(F)(F)F [LSHTM-3642]
[c] CC(C)c1nc2cnc(-c3ccc(F)c(C(F)(F)F)c3)cn2c1-c1ccc2[nH]ncc2c1F [LSHTM-3604]
rank_up(items): orders items by reported Clobs in ascending numerical order. Respond with an ordered listing of the labels, as requested. b, c, a

----------
experiment: Human dose prediction with the PK Tool; details: PK Tool; predicted plasma conc at 24 h 7 fold above calculated adult worm blood potency
READOUT_LABEL: human single oral dose prediction (mg/kg)

CC(C)c1cc(-c2cn3c(-c4ccc5[nH]ncc5c4F)c(C4CC4)nc3cn2)ccc1F	1
CC(C)c1nc2cnc(-c3ccc(F)c(C(F)(F)F)c3)cn2c1-c1c(F)cc(O)cc1F	25
Fc1ccc(-c2cn3c(-c4ccc5[nH]ncc5c4F)c(C(F)(F)F)nc3cn2)cc1C(F)(F)F	20

[A] Fc1c(-c2c(C(F)(F)F)nc3cnc(-c4cccc(C(F)(F)C(F)(F)F)c4)cn23)ccc2[nH]ncc12
[B] CC(C)c1nc2cnc(-c3ccc(F)c(C(F)(F)F)c3)cn2c1-c1ccc2[nH]ncc2c1F
Param metric = human single oral dose prediction; output whichever of A , B has the minimum value. Please indicate the selected item by its label. A

----------
test: Mouse pharmacokinetics; format: in vivo; details: male, Swiss albino, plasma, 0.5 mg/kg iv, in a mixture of 5 compounds, read-out: Vss;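 note: three mice per experiment, dosed in 10% DMSO with 50 mM Na2HPO4 buffer plus Tween-80, plasma levels quantified by LC-MS against a calibration line prepared in blank matrix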
READOUT_LABEL: Vd (L/kg)

CC(C)c1nc2cnc(-c3ccc(F)c(C(F)(F)F)c3)cn2c1-c1ccc2[nH]ncc2c1F	3.4

[P] CC(C)c1cc(-c2cn3c(-c4ccc5[nH]ncc5c4F)c(C4CC4)nc3cn2)ccc1F
[Q] CC(C)c1cc(-c2cn3c(-c4ccc5[nH]ncc5c4F)c(C(F)(F)F)nc3cn2)ccc1F
[R] Fc1ccc(-c2cn3c(-c4ccc5[nH]ncc5c4F)c(C(F)(F)F)nc3cn2)cc1C(F)(F)F
[S] CC(C)c1nn2cnc(-c3ccc(F)c(C(F)(F)F)c3)cc2c1-c1ccc2[nH]ncc2c1F
rank_up(items): orders items by reported Vd in ascending numerical order. Respond with an ordered listing of the labels, as requested. S, P, Q, R

[P] Fc1c(-c2c(C(F)(F)F)nc3cnc(-c4cccc(C(F)(F)C(F)(F)F)c4)cn23)ccc2[nH]ncc12
[Q] CC(C)c1nc2cnc(-c3ccc(F)c(C(F)(F)F)c3)cn2c1-c1c(F)cc(O)cc1F
Lab notebook, comparison: P versus Q , higher Vd goes to which? Please indicate the selected item by its label. Q

----------
assay: in vivo; details: rat, iv, 1 mg/kg
READOUT_LABEL: AUC(0-inf) (µg·h/mL)
// units = µg·h/mL; emit number, no label

Recorded AUC(0-inf) for Fc1ccc(-c2cn3c(-c4ccc5[nH]ncc5c4F)c(C(F)(F)F)nc3cn2)cc1C(F)(F)F , please? 5
